TGI listing for selected compounds.
Test system: HT29 colon
test_method_notes: NCI tumour cell line growth inhibition, 48 h

[[record]]
compound = "CCOC(=O)C1(Cc2ccc3c(c2)CCC3)Cc2cc3c(cc2C1=O)CCC3 (stereo not given)"
reported_endpoint = "TGI"
recorded_measurement = "> 100 µM"

[[record]]
compound = "CCOC(=O)c1c(NC(=O)COc2cccc3cccnc23)sc(C(=O)N(C)C)c1C"
reported_endpoint = "TGI"
recorded_measurement = "61.6 µM"

[[record]]
compound = "CCOC(=O)/C(=C\\c1ccccc1)C(=O)CCN1CCOCC1"
reported_endpoint = "TGI"
recorded_measurement = "25.1 µM"

[[record]]
compound = "COc1ccc(/C=C/c2nsc(/C=C/c3ccc(OC)cc3)n2)cc1"
reported_endpoint = "TGI"
recorded_measurement = "> 100 µM"

[[record]]
compound = "COC(=O)Cc1cccc2c1CCC2=O"
reported_endpoint = "TGI"
recorded_measurement = "> 100 µM"


Note to self: TGI recorded for C=CCSc1nc2c(N)ncnc2n1C1OC(CO)C(O)C1O (stereo not given) was > 100 µM

The value of TGI measured for the compound CO[C@@H]1C[C@H]2[C@@H]3CC[C@H]([C@H](C)CO)[C@@]3(C)CC[C@@H]2[C@@]2(C)CC[C@H]3C[C@]312 turned out to be 40.8 µM

Form field TGI, entry c1ccc2c(c1)c1ccccc1c1n[se]nc21 : > 100 µM

TGI reading for C=CCc1cc(OC)c2c(c1)C(OC(C)=O)CC(c1ccc(OC)c(OC)c1)O2 (stereo not given) : > 100 µM

TGI in this record for CN(/N=C(\C(=O)O)c1ccccc1)C1=NCCCCN1 : > 100 µM

Just for reference, PubChem BioAssay (NCI) is where these values come from.
